test: qHTS for Inhibitors of binding or entry into cells for Lassa Virus; details: Lassa virus pseudotyped entry inhibition, cell-based qHTS; series mostly up to 49.2 µM; note: % is set by controls: 0 for no effect and ±100 for the full control effect
About 750 (4.2%) of roughly 18,000 compounds were called active. About 13% were inconclusive and are not listed. The sample as a whole holds a higher share of actives than the screen did.
attributeMeasured: activity change, negative = inhibition

Sample records with activity change, negative = inhibition:
1) CC(C)[C@@H](OCc1ccccc1)[C@H](C)C=NOC[C@@H](C)[C@H](OCc1ccccc1)C(C)C ... 8.86% [at 8.59 µM] (inactive)
2) CC1=C(/C=C/C(C)=C/C=C/C(C)=C/C=C/C=C(C)/C=C/C=C(C)/C=C/C2=C(C)CCCC2(C)C)C(C)(C)CCC1 ... inactive
3) C=O ... inactive
4) O=C(C1CCCCC1)N1C[C@H](O)[C@H](n2cc(-c3ccc(F)cc3)nn2)C[C@@H]1c1ccccc1 ... inactive
5) CC(O)[C@@H](N)C(=O)O (stereo partly drawn) ... inactive

For the 7 molecules below, give their activity change, negative = inhibition values.
1. COc1ccc(C2CC(=O)Oc3ccc(C(C)(C)C)cc32)cc1 (stereo not drawn)
2. Cc1ccc(-c2ccc(CN3C(C(C)C)C(=O)N(Cc4cn(CCC5OCCCO5)nn4)CCS3(=O)=O)cc2)cc1 (stereo not drawn)
3. O=[N+]([O-])c1ccc(CN2CC(N3CC=CC3)CS2(=O)=O)cc1 (stereo not drawn)
4. O=C(CCN1Cc2ccccc2OC(c2ccccc2)C1)N[C@@H]1CS(=O)(=O)C[C@H]1O (stereo partly drawn)
5. CC(C)c1cnc(NC(=O)Cc2ccccc2)s1
6. C=CCOC(=O)C(=C)C
7. COc1ccc(O[C@H]2C=C[C@@H](c3ccccc3)O[C@H]2COC(=O)CCC(C)=NOC[C@@H](C)[C@H](OCc2ccccc2)C(C)C)cc1

// result
1: inactive; 2: inactive; 3: inactive; 4: inactive; 5: inactive; 6: inactive; 7: -27.6% [at 8.59 µM] (inactive)
